Reference for the values: patent US7629318B2

Target: DR4Dw14 (DRA1*0101 DRB1*0404) (Homo sapiens, UniProt P01903+P01911, A100R/A169T/F76Y/I96L/K127E/L162R/M171V/N62H/P40V/Q125Y/R42H/S133A/S149N/S66Y/V209L/W38E)
Assay: Competitive binding to MHC-II protein DR4Dw14
Details: 0404; read-out: Protein binding IC50 (nM) 0404
Numbered stars: 1 amine (or outer) side, 2 acyl side, 3 side chain; on linkers, the order of the positions; unused ones are H or OH. Square brackets hold non-standard residues; d marks the D form. Peptide text beside a SMILES is read from it. X1 = CC(C)c1oc([C@H](CO)N[*:1])nc1C(=O)[*:2]; Pro(3R-Ph) = O=C(O)[C@H]1NCC[C@@H]1c1ccccc1; Met(O) = CS(=O)CC[C@H](N)C(=O)O; Tic = O=C(O)[C@@H]1Cc2ccccc2CN1; Cha = N[C@@H](CC1CCCCC1)C(=O)O
Property: IC50 (nM)
Numbers only, in nM.

IC50 in this record for CC(=O)N[C@@H](CC1CCCCC1)C(=O)N[C@@H](CCCNC(=N)N)C(=O)N1Cc2ccccc2C[C@H]1C(=O)N[C@@H](CC[S+](C)[O-])C(=O)N1CC[C@H](c2ccccc2)[C@H]1C(=O)N[C@@H](CO)c1nc(C(=O)N(C)C)c(C(C)C)o1 (stereo partly drawn) [Compound P43] (Ac-[Cha]R[Tic][Met(O)][Pro(3R-Ph)][X1]-NMe2) : 1700

---

So I've got a bunch of molecules here, and I need their % Reduction of response to PPD(OVA) values.
System: T cell activation from 0404(DR14) chimeric MHCII-mice
Test: In vivo inhibition of T cell activation by co-immunisation, DR14 mice immunised with OVA
Parameters: species or system mouse; concentration or dose not given beside the values
Conditions: specificity control: response to PPD in the same cell pool, OVA co-immunised mice
Source text: Mouse strains DR4 and DR14 carry chimeric MHC-II transgenes that encode the N-terminal domains of the respective DR molecules (forming the peptide binding site) and the remaining (2nd extracellular domains, transmembrane and intracytoplasmic domains) of the murine class II molecule I Ed. […] Readout of the assay is ex vivo antigen-specific activation of T cells from regional lymph nodes explanted 9 days after co-immunization. […]
Numbered stars: 1 amine (or outer) side, 2 acyl side, 3 side chain; on linkers, the order of the positions; unused ones are H or OH. Square brackets hold non-standard residues; d marks the D form. Peptide text beside a SMILES is read from it. * marks the point of attachment. Gly(1-amidinopiperidin-4-yl) = N=C(N)N1CCC([C@H](N)C(=O)O)CC1; X1 = CC(C)c1oc([C@H](CO)N[*:1])nc1C(=O)[*:2]; Pro(3R-Ph) = O=C(O)[C@H]1NCC[C@@H]1c1ccccc1; Tic = O=C(O)[C@@H]1Cc2ccccc2CN1; Cha = N[C@@H](CC1CCCCC1)C(=O)O; NHPhenethyl = c1ccc(CCN*)cc1; NMe(benzyl) = CN(Cc1ccccc1)*; Nle = CCCC[C@H](N)C(=O)O
One number for each entry, in %.

Below: 3 molecules and their reported % Reduction of response to PPD(OVA).
INSERT INTO measurements (molecule, property, unit_label, measured_value) VALUES
  ('CCCC[C@H](NC(=O)[C@@H]1Cc2ccccc2CN1C(=O)[C@H](CCCNC(=N)N)NC(=O)[C@H](CC1CCCCC1)NC(C)=O)C(=O)N1CC[C@H](c2ccccc2)[C@H]1C(=O)N[C@@H](CO)c1nc(C(=O)N(C)C)c(C(C)C)o1 [Compound P51] (Ac-[Cha]R[Tic][Nle][Pro(3R-Ph)][X1]-NMe2)', '% Reduction of response to PPD(OVA)', '%', 3.5),
  ('CCCC[C@H](NC(=O)[C@@H]1Cc2ccccc2CN1C(=O)[C@@H](NC(=O)[C@H](CC1CCCCC1)NC(C)=O)C1CCN(C(=N)N)CC1)C(=O)NCCc1ccccc1 [Compound P69, Ac-Cha-Gpg-Tic-Nle-N(H)CH2CH2Ph] (Ac-[Cha][Gly(1-amidinopiperidin-4-yl)][Tic][Nle]-NHPhenethyl)', '% Reduction of response to PPD(OVA)', '%', 9),
  ('CCCC[C@H](NC(=O)[C@@H]1Cc2ccccc2CN1C(=O)[C@@H](NC(=O)[C@H](CC1CCCCC1)NC(C)=O)C1CCN(C(=N)N)CC1)C(=O)N1CC[C@H](c2ccccc2)[C@H]1C(=O)N[C@@H](CO)c1nc(C(=O)N(C)C)c(C(C)C)o1 [Compound P53] (Ac-[Cha][Gly(1-amidinopiperidin-4-yl)][Tic][Nle][Pro(3R-Ph)][X1]-NMe2)', '% Reduction of response to PPD(OVA)', '%', 26.8);

Turning now to a further record.
Considering CCCC[C@H](NC(=O)[C@@H]1Cc2ccccc2CN1C(=O)[C@H](CCCNC(=N)N)NC(=O)[C@H](CC1CCCCC1)NC(C)=O)C(=O)N(C)Cc1ccccc1 [Compound P71, Ac-Cha-Arg-Tic-Nle-N(Me)Bn] (Ac-[Cha]R[Tic][Nle]-{NMe(benzyl)}) , its % Reduction of response to PPD(OVA) with T cell activation from 0404(DR14) chimeric MHCII-mice was recorded as 21.8
